biological target: hHER3 full length (human, UniProt P21860 20-1342); test: cell-based or functional assay
Catalogue of IC50, HRG1-β1 induced pHER3, MDA-MB468 readings, one per entry.
OBSERVED_PROPERTY: IC50, HRG1-β1 induced pHER3, MDA-MB468 (M)

INSERT INTO assay_data (binder, unit_text, observed_value) VALUES
  ('21B02 (VHH) VHH: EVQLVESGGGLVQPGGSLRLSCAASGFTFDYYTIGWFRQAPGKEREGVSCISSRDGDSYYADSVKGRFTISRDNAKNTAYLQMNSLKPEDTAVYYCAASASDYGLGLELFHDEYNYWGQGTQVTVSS', 'M', '9.99e-08'),
  ('17B05 (VHH, also called HER3MS17B05; HER3MS017B05) VHH: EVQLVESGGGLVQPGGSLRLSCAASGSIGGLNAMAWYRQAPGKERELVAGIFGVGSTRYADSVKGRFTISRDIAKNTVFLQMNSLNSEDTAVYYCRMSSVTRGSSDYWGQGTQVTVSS', 'M', '2.79e-08'),
  ('18E08 (VHH) VHH: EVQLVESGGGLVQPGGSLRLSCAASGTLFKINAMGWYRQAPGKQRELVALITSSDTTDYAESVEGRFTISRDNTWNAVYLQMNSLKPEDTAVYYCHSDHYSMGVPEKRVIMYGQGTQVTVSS', 'M', '1.01e-07'),
  ('04C07 (VHH, also called HER3MS04C07; HER3MS004C07) VHH: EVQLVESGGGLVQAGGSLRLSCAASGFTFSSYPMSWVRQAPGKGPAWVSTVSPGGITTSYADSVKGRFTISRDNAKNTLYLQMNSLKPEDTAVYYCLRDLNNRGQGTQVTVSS', 'M', '6.68e-09');
